# Test system: HaCat
# protocol: Cytotoxic Profiling of Annotated Libraries Using Quantitative High-Throughput Screening (AID 1296008); also: % is scaled to controls: 0 for no effect and ±100 for the full control effect; nearly all actives have a fitted effect of over 60% in size
# test conditions: Five cell lines viability, CellTiter-Glo ATP luminescence, 48-72 h; hits give low values
Results filed as inconclusive are left out.

compound	max response / %
Cc1cccc(C)c1NC(=O)CC12CCCN1CCC2	-12.5
O=C(OOC(=O)c1ccccc1)c1ccccc1	-8.52
CCCCCCCCCCC(CO)CCCCCCCC (stereo not drawn)	-2.15

====

# System: JCK
# protocol: qHTS profiling for inhibitors of Plasmodium falciparum proliferation (AID 504749); also: nearly all actives have a fitted effect of over 60% in size
# test conditions: P. falciparum in erythrocytes, SYBR Green DNA, 72 h; series mostly up to 28.7 µM
Inconclusive results are not listed. Calls of active or inactive are those of the source. Calls follow the shape of the dose curve; as a rule, active = well fitted inhibition curve with a large enough effect; inconclusive = small, poorly fitted or top-dose-only effect; inactive = flat fitted curve, though single readings scatter.
Outcomes: 1 = active, 0 = inactive

molecule	category label
O=C(O)c1cc(=O)c2ccccc2o1	0
CNCc1ccccc1	0
CC(=O)Oc1cccc(C)c1	0
CC1CCc2cc(F)cc3c(=O)c(C(=O)O)cn1c23 (stereo unspecified)	0
CCCCCCCCCCOc1cc2c(=O)c(C(=O)OCC)c[nH]c2cc1OCC	1
Nc1ncnc(Nc2ccccc2)n1	0
CN(C/C=C/C#CC(C)(C)C)Cc1cccc2ccccc12	0
CCOC(N)=O	0
CN1C(C)(C)CCCC1(C)C	0
CC(=O)NCc1c(I)c(NC(C)=O)c(I)c(C(=O)O)c1I	1
Cc1c(Cn2ccnc2)c2ccccc2n1CCC(=O)O	0
NNc1nnc(NN)c2ccccc12	0
NNC(=O)CP(=O)(c1ccccc1)c1ccccc1	0
O=C(O)c1ccccc1C(=O)Nc1ccc(S(=O)(=O)Nc2nccs2)cc1	0
CC(O)CCCCn1c(=O)c2c(ncn2C)n(C)c1=O (stereo unspecified)	0
CCOC(=O)c1cccnc1	0
